meta.source: patent US20260125400A1

# test.system: TYK2 (Homo sapiens, UniProt P29597)
# Construct: Degradation of TYK2 in cells was quantitatively measured using Meso Scale Discovery (MSD) technology; endogenous in cells; host or cells: OCI-LY10
# Sequence (P29597 whole entry): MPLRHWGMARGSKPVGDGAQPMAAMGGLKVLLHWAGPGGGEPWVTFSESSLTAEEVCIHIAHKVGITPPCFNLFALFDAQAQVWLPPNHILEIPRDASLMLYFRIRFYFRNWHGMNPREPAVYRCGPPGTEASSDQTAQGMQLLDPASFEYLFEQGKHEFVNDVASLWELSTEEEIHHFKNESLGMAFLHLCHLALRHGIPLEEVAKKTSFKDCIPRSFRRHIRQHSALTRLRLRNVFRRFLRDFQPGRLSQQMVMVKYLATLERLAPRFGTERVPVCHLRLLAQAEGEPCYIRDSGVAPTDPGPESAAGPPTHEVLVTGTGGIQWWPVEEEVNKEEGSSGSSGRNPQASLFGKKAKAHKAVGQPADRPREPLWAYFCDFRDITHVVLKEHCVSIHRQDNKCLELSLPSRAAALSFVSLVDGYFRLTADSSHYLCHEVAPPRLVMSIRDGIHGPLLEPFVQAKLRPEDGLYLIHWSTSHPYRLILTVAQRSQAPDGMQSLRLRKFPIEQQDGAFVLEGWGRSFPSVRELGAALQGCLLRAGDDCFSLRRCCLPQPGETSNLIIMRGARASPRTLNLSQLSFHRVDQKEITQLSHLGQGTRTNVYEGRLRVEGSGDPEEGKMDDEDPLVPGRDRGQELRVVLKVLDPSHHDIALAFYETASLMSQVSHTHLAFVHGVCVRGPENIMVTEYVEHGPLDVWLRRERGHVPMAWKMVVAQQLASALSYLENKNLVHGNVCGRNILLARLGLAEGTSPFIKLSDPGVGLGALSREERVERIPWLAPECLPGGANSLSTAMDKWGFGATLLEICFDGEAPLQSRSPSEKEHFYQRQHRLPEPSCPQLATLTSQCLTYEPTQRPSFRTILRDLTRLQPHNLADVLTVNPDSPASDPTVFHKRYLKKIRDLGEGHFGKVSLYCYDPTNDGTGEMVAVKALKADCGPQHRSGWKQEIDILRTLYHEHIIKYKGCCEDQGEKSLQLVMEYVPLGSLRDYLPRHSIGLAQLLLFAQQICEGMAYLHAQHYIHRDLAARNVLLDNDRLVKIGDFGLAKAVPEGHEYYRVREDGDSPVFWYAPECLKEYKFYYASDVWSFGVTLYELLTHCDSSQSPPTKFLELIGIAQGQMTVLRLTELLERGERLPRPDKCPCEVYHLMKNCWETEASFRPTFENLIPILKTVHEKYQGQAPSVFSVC
# assay.explanation: TYK2 MSD degradation in OCI-LY10 cells
# Assay type: cell-based
# measurement.conditions: OCI-LY10 cells, 4 to 24 hours incubation, read-out: TYK2 MSD OCI-LY10 Rel-DC50
# Experimental: Example 7. TYK2 MSD Degradation Degradation of TYK2 in cells was quantitatively measured using Meso Scale Discovery (MSD) technology. OCI-LY10 cells were seeded in 96-well plates with a density of 0.4 million cells per well in 100 μl fresh media. […] The assay plates were then incubated at room temperature for 1 hour, washed 3 times with 150 μl/well TB ST buffer, and 150 μl/well MSD reading buffer (MSD, R92TC-2) were added. The plates were then analyzed by an MSD reader. […]
Here, each record is paired with measured DC50 data.

Solved entries:
1. CNc1cc(N2CCc3c(C#CCN4CCC(N5CCC6(CCN(c7ccc8c(c7)n(C)c(=O)n8C7CCC(=O)NC7=O)CC6)CC5)C(F)(F)C4)cccc32)nn2c(C(=O)N[C@@H]3C[C@@H]3F)cnc12 (stereo partly shown) [I-486]	< 0.01 µM
2. CNc1cc(N2CCc3c(CN4CCC(CN5CCC6(CC5)CCN(C(=O)c5ccc(Cl)c(N7CCC(=O)NC7=O)c5)CC6)C(F)(F)C4)cccc32)nn2c(C(=O)N[C@@H]3C[C@@H]3F)cnc12 (stereo partly shown) [I-766]	< 0.001 µM
3. CNc1cc(N2CCc3c(-c4ccc(CN5CC6(CCN(C(=O)c7cc(N8CCC(=O)NC8=O)c(C)cn7)CC6)C5)cn4)cccc32)nn2c(C(=O)N[C@@H]3C[C@@H]3F)cnc12 [I-782]	< 0.001 µM

Incoming: Which DC50 value is on record for CNc1cc(N2CCc3c(-c4ccc(CN5CCC(N6CCC(N(C)c7ccc(Cl)c(N8CCC(=O)NC8=O)c7)CC6)C(F)(F)C5)cn4)cccc32)nn2c(C(=O)N[C@@H]3C[C@@H]3F)cnc12 (stereo partly shown) [I-784] ?
Outgoing: 0.01 to 0.1 µM

Incoming: Same question for CNc1cc(N2CCc3c(-c4ncc(CN5CC6(CCN(C(=O)c7cc(C)c(Cl)c(N8CCC(=O)NC8=O)c7)CC6(F)F)C5)cc4Cl)cccc32)nn2c(C(=O)N[C@@H]3C[C@@H]3F)cnc12 [I-747] please.
Outgoing: < 0.01 µM

Incoming: Same question for CNc1cc(N2CCc3c(-c4ccc(OCCC5CCN(C(=O)c6ccc(Cl)c(N7CCC(=O)NC7=O)c6)CC5)cn4)cccc32)nn2c(C(=O)N[C@@H]3C[C@@H]3F)cnc12 [I-617] please.
Outgoing: < 0.01 µM

Incoming: Same question for CNc1cc(N2CCc3c(CN4CCC(N5CC(C6CCN(C(=O)c7ccc(Cl)c(N8CCC(=O)NC8=O)c7)CC6)C5)C(F)(F)C4)cccc32)nn2c(C(=O)N[C@@H]3C[C@@H]3F)cnc12 (stereo partly shown) [I-791] please.
Outgoing: < 0.001 µM

----------
# test.system: TYK2 (Homo sapiens)
# Construct: Degradation of TYK2 in cells was quantitatively measured using Meso Scale Discovery (MSD) technology; endogenous in cells; host or cells: OCI-LY10
# assay.explanation: TYK2 MSD degradation in OCI-LY10 cells
# Type: cell-based
# measurement.conditions: TYK2 degradation in OCI-LY10 cells, 4 to 24 hours incubation
value.type: TYK2 MSD OCI-LY10 Dmax %

Solved entries:
1) CNc1cc(N2CCc3c(C4CCN(CC5CCC6(CC5)CCN(C(=O)c5ccc(Cl)c(N7CCC(=O)NC7=O)c5)CC6)CC4)cccc32)nn2c(C(=O)NC3CC3)cnc12 [I-56]	C (C (75 to 50%))
2) CNc1cc(N2CCc3c(-c4ncc([C@H](C)N5CC6(CCN(C(=O)c7cc(C)c(Cl)c(N8CCC(=O)NC8=O)c7)CC6(F)F)C5)cc4F)cccc32)nn2c(C(=O)N[C@@H]3CC[C@H]3OC)cnc12 [I-1143]	A (A (>90%))
3) CNc1cc(N2CCc3c(CN4CCC(N5CCC6(CCN(c7ccc8c(c7)n(C)c(=O)n8C7CCC(=O)NC7=O)CC6)CC5)C(F)(F)C4)cccc32)nn2c(C(=O)NC3CC3)cnc12 (stereo not drawn) [I-19]	B (B (90 to >75%))
4) CNc1cc(N2CCc3c(-c4ccc(CN5CCC6(CCN(C(=O)c7ccc(C(F)(F)F)c(N8CCC(=O)NC8=O)c7)CC6)C(F)(F)C5)cn4)cccc32)nn2c(C(=O)N[C@@H]3C[C@@H]3F)cnc12 [I-978]	D (D (<50%))

Let us move to another entry and its TYK2 MSD OCI-LY10 Dmax %.
Incoming: Which TYK2 MSD OCI-LY10 Dmax % value is on record for CNc1cc(N2CCc3c(CN4CCC(N5CCC(N6CCN(C(=O)c7ccc(Cl)c(N8CCC(=O)NC8=O)c7)CC6)C5)C(F)(F)C4)cccc32)nn2c(C(=O)N[C@@H]3C[C@@H]3F)cnc12 (stereo partly drawn) [I-803] ?
Outgoing: A (A (>90%))
